test system: SN12C; assay: NCI tumour cell line growth inhibition, 48 h
Activity calls are given as the source filed them. No stated cut-off is given here; in the data, active = GI50 up to about 1.1 µM and inactive = higher.
Please state which outcome applies, choosing from active, inactive

The following molecules have reported results that may help.
Problem: Which outcome was assigned to COc1ccc(C2C(C#N)=C(S)N(C3OC(COC(C)=O)C(OC(C)=O)C(OC(C)=O)C3OC(C)=O)C(C)=C2C(C)=O)cc1 (stereo not given) in this test?
Solution: inactive

Problem: Lab log entry: O=C1CSC(c2ccccc2O)N1c1ccc(Oc2ccc(Cl)cc2)c(Cl)c1 (stereo not given) — outcome as called in the assay?
Solution: inactive

Problem: Give the logged outcome of this assay for the following molecule: `CC1=C(C(=O)Nc2ccc(Cl)c(Cl)c2)C(c2ccco2)C(C(=O)Nc2ccc(Cl)c(Cl)c2)=C(C)N1`
Solution: inactive

Others:
Problem: Entry `Cc1cccc2c(N)c3cccc(C(=O)NCCNCCN)c3nc12` : call = ?
Solution: active

Problem: For `CCOC(=O)NC(=O)c1cn(CCSCCOC(=O)NCCCCCCNC(=O)OCCSCCn2cc(C(=O)NC(=O)OCC)c(=O)[nH]c2=O)c(=O)[nH]c1=O` , what call appears in the results of this test?
Solution: inactive

Problem: What did the test return for CC(NC(=O)Cc1ccccc1)NC(=O)C(C)C(=O)NCc1ccccc1 (stereo not given) ?
Solution: inactive

Problem: How did this test come out for `Cc1ccc(-c2nnc(CCCCCCCCc3nnc(-c4ccc(C)cc4O)n3N)n2N)c(O)c1` ?
Solution: inactive

Problem: Test call, this molecule: O=C(O)c1ccccc1CC1Cc2ccccc2C1=O (stereo not given)
Solution: inactive

Problem: // param item: CC1=NN(C(=O)CC(=O)NC(=O)CC(=O)Nc2ccccc2F)C(=O)C1/N=N/c1ccc([N+](=O)[O-])cc1 (stereo not given) ; yields the recorded call
Solution: inactive

Problem: How was `O=[As]O` classified in this test?
Solution: inactive
